- tested target: human CD33 E321A (human, UniProt P20138 18-364)
- Sequence (P20138 18-364 E321A limits assumed): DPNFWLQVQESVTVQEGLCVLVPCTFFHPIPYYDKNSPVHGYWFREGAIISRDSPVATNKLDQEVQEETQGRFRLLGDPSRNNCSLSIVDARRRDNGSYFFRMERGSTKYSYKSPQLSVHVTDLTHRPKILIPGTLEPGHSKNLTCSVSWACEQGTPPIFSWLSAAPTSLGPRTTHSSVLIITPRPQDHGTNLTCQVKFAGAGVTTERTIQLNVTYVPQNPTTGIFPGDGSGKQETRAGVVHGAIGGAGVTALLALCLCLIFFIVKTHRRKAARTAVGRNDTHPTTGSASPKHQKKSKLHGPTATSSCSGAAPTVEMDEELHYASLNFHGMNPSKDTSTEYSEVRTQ
- measurement notes: flow cytometry, alanine scan
Each entry below lists one item and its recorded Mean % WT Binding value.

| binder | measured result |
| --- | --- |
| Refmab #1 (antibody, V domains shown, The alanine scan used IgG or Fab; also called hP67.6) VH: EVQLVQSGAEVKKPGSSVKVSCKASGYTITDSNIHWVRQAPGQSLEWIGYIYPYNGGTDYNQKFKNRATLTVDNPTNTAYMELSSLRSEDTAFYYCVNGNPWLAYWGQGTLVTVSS VL: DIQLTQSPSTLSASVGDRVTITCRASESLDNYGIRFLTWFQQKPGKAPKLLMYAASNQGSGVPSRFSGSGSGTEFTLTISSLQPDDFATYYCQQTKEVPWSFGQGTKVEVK | 88.3 % of WT |
| Refmab #4 (antibody, V domains shown, The alanine scan used IgG or Fab) VH: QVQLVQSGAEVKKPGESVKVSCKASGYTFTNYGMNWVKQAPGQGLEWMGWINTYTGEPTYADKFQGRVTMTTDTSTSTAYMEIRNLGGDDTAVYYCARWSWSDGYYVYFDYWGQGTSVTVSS VL: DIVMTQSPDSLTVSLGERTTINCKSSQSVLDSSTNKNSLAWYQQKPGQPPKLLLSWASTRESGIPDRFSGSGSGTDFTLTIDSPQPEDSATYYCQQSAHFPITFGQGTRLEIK | 120 % of WT |
| Refmab #2 (antibody, V domains shown, The alanine scan used IgG or Fab) VH: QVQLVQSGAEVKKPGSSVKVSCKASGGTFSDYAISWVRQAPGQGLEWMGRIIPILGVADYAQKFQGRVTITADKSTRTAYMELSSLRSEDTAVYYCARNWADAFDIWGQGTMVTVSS VL: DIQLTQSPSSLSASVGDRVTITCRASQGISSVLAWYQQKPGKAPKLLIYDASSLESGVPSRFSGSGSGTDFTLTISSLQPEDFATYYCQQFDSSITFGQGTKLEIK | 117 % of WT |

Note to self: Mean % WT Binding recorded for Refmab #3 (antibody, V domains shown, The alanine scan used IgG or Fab) VH: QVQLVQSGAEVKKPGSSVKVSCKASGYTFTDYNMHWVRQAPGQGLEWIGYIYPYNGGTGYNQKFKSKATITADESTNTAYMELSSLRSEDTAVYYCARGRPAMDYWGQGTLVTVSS VL: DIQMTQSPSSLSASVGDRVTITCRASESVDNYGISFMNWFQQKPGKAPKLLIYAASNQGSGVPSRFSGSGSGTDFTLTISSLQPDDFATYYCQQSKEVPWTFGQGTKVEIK was 88.4 % of WT
